Test system: Tyrosine-protein kinase ABL1 (Homo sapiens), P00519 [T315I]
Details: at 0.1 µM
// inhibition lookup, one value per entry
The figure you give is taken to be in %; do not add the unit.

Consider the worked cases shown below.
item smiles: CN(C)c1cc2c(Nc3ccc4c(cnn4Cc4ccccc4)c3)ncnc2cn1
experimental endpoint: inhibition
observed result: -1.13

item smiles: COc1cccc(-n2ncc3c(N/N=C/c4ccc(S(C)(=O)=O)cc4)ncnc32)c1
experimental endpoint: inhibition
observed result: 49.4

item smiles: CCn1c(-c2nonc2N)nc2ccc(F)cc21
experimental endpoint: inhibition
observed result: 3.34

Test system Tyrosine-protein kinase ABL1 (Homo sapiens), P00519 [T315I]; read-out inhibition; what value for Cc1cc(O)cc(C)c1/C=C/c1cncc(C(=O)N(C)C)c1 ?
2.58

Now consider CC(C)c1ccc(Nc2nccc(-c3cnn4ncccc34)n2)cc1 and answer again.
2.34

Now consider FC(F)(F)c1ccc(-c2nn3ncccc3c2-c2ccnc(Nc3ccc4c(c3)OCCO4)n2)cc1 and answer again.
1.73
